System: Gli-responsive luciferase reporter cells, SUFU pathway antagonism
assayProcedure: Gli-SUFU pathway antagonists, dose response, cell-based, luciferase luminescence, uHTS hits (AID 602464)
The source made the active and inactive calls. Rule as the data show it: active = IC50 below about 20 µM; inactive = the rest.
Possible outcomes: 1 (yes) (active), 0 (no) (inactive)

compound	assignedLabel
CCC(C)NS(=O)(=O)c1ccc(S(=O)(=O)N2CCCC3(CCCCC3)C2)cc1 (configuration not stated)	0 (no)
COc1cc2c(c(OC)c1OC)-c1ccc(N(C)CC(OC)OC)c(=O)cc1[C@@H](NC(C)=O)CC2	1 (yes)
CCCOc1ccc(Br)cc1CSC(=N)N	1 (yes)
CCOc1ccc(-n2c(-c3ccc(Cl)cc3)c[n+]3c2SCC3)cc1	1 (yes)
CCOc1ccc(-c2nc(CSCC(=O)NCC3CCCO3)c(C)o2)cc1 (configuration not stated)	1 (yes)
CCC(C)CCN1C(N(C)C)=NC[C@@H]1CC(C)C (some centres not stated)	1 (yes)
CCN(CC)S(=O)(=O)c1ccc(C)c(NC(=S)N2CCN(Cc3ccc4c(c3)OCO4)CC2)c1	1 (yes)
CC(=O)c1c(C)[nH]c(C(=O)OCC(=O)Nc2cccc(S(=O)(=O)N3CCCC3)c2)c1C	1 (yes)
Cc1cc(Nc2ccc([N+](=O)[O-])cc2)c2ccccc2n1	0 (no)
CN1/C(=C\C=Nc2ccccc2)C(C)(C)c2ccccc21	1 (yes)
O=c1c2ccccc2nc2n1C(CSCc1cccc(C(F)(F)F)c1)CS2 (configuration not stated)	1 (yes)
O=C(c1ccc(C(F)(F)F)cc1)C1CCCN(Cc2ccncc2)C1 (configuration not stated)	1 (yes)
C=CCNc1nc2c(c(=O)n(C)c(=O)n2C)n1Cc1ccc(F)cc1	1 (yes)
Cc1sc2ncnc(NCC(C)(C)N3CCOCC3)c2c1C	1 (yes)
O=C(C[C@@H]1C/C=C\C[C@@H](NC(=O)OCC2c3ccccc3-c3ccccc32)C(=O)OC[C@@H](Cc2ccccc2)NC1=O)NCCO	1 (yes)
CC(C)(C)[C@H]1COC(=O)[C@H](NC(=O)OCC2c3ccccc3-c3ccccc32)C/C=C\C[C@@H](CC(=O)N[C@@H](CO)Cc2ccccc2)C(=O)N1	1 (yes)
Cc1ccc(OCCN2CCN(c3ncnc4sc(C)c(C)c34)CC2)cc1	1 (yes)
Cc1nn(C)c(C(=O)NCc2ccc(Cl)cc2)c1Cl	1 (yes)
Cc1c(C(C)C)c(=O)n(-c2ccc(S(=O)(=O)NCc3ccccc3)cc2)n1C	1 (yes)
COc1ccc(CCNc2ncnc3c2oc2ccccc23)cc1OC	1 (yes)
Brc1ccc(-c2csc(N3CCCCCC3)n2)cc1	1 (yes)
O=C(c1cc2sccc2n1Cc1ccc(F)cc1)N1CCN(c2nc3ccccc3s2)CC1	1 (yes)
Cc1ccc(C2=C(CC(=O)O)C(=O)CC2)cc1	0 (no)
N=c1c2c(n(Cc3ccc(F)cc3)c3c1CCC3)CCCC2	1 (yes)
Cc1ccc(S(=O)(=O)N2CCN(C(=O)C3CCN(c4ncnc5sc(C)c(C)c45)CC3)CC2)c(C)c1	1 (yes)
O=C(Cn1c(-c2ccccc2)c[n+]2ccsc12)c1ccc(Br)cc1	0 (no)
C[C@@H]1COC(=O)[C@H](NC(=O)OCC2c3ccccc3-c3ccccc32)C/C=C\C[C@@H](CC(=O)N[C@@H](CO)Cc2ccccc2)C(=O)N1	1 (yes)
